- System: Nonstructural protein 5A (Hepatitis C virus), Q5L478 [UNDEFINED MUTATION]
- ASSAY_SUMMARY: Inhibition of NS5A L31V mutant in HCV genotype 1a assessed as reduction in replicon RNA level after 3 days by cell based RT-PCR method
- CONDITION_LABEL: Hepatitis C virus subtype 1a
Threshold-based label: EC90 under 0.9 nM gives 1, EC90 not under 0.9 nM gives 0.

As a guide, the following entries are already answered.
[[record]]
molecule = "COC(=O)N[C@H](C(=O)N1[C@@H]2C[C@@H]2C[C@H]1c1ncc(-c2cc(F)c3c(c2)OC(c2cccc(OC)c2)n2c-3cc3cc(-c4cnc([C@@H]5C[C@H]6C[C@H]6N5C(=O)[C@@H](NC(=O)OC)C(C)C)[nH]4)ccc32)[nH]1)C(C)C (stereo partly drawn)"
class_assignment = 0

[[record]]
molecule = "COC(=O)N[C@H](C(=O)N1CCC[C@H]1c1ncc(-c2cc(F)c3c(c2)OC(c2ccc4c(c2)OCCC4)n2c-3cc3cc(-c4cnc([C@@H]5CCCN5C(=O)[C@@H](NC(=O)OC)C(C)C)[nH]4)ccc32)[nH]1)C(C)C (stereo partly drawn)"
class_assignment = 1


Exercise: Answer whether the molecule COC(=O)N[C@H](C(=O)N1CCC[C@H]1c1ncc(-c2ccc3c(c2)cc2n3C(c3cccc(OC)c3)Oc3cc(-c4cnc([C@@H]5C[C@@H](F)CN5C(=O)[C@@H](NC(=O)OC)C(C)C)[nH]4)ccc3-2)[nH]1)C(C)C (stereo partly drawn) has EC90 strictly less than 0.9 nM
Solution: 1

Exercise: Answer whether the molecule COC(=O)N[C@H](C(=O)N1CCC[C@H]1c1ncc(-c2ccc3c(c2)cc2n3C(c3cccc(OC)c3)Oc3cc(-c4cnc([C@@H]5C[C@H]6C[C@H]6N5C(=O)[C@@H](NC(=O)OC)C(C)C)[nH]4)cc(F)c3-2)[nH]1)C(C)C (stereo partly drawn) has EC90 strictly less than 0.9 nM
Solution: 1

Exercise: Answer whether the molecule COC(=O)N[C@H](C(=O)N1CCC[C@H]1c1ncc(-c2ccc3c(c2)OC(c2cccc(OC)c2)n2c-3cc3cc(-c4cnc([C@@H]5C[C@H]6C[C@H]6N5C(=O)[C@@H](NC(=O)OC)C(C)C)[nH]4)ccc32)[nH]1)C(C)C (stereo partly drawn) has EC90 strictly less than 0.9 nM
Solution: 1

Exercise: Answer whether the molecule COC(=O)N[C@H](C(=O)N1C[C@H](F)C[C@H]1c1ncc(-c2cc(F)c3c(c2)OC(c2cccc(OC)c2)n2c-3cc3cc(-c4cnc([C@@H]5C[C@@H](F)CN5C(=O)[C@@H](NC(=O)OC)C(C)C)[nH]4)ccc32)[nH]1)C(C)C (stereo partly drawn) has EC90 strictly less than 0.9 nM
Solution: 0

Exercise: Answer whether the molecule COC(=O)N[C@H](C(=O)N1CCC[C@H]1c1ncc(-c2cc(F)c3c(c2)OC(c2ccccc2)n2c-3cc3cc(-c4cnc([C@H]5[C@@H]6[C@H](CN5C(=O)[C@@H](NC(=O)OC)C(C)C)C6(C)C)[nH]4)ccc32)[nH]1)C(C)C (mixture of isomers) has EC90 strictly less than 0.9 nM
Solution: 0

----------
# EC90 per entry
- System: Hepatitis C virus subtype 2b
- ASSAY_SUMMARY: Inhibition of NS5A in HCV genotype 2b assessed as reduction in replicon RNA level after 3 days by cell based RT-PCR method
Report the value in nM with no unit label.

The cases that follow already have their EC90 on record.
[[record]]
compound = "COC(=O)N[C@H](C(=O)N1C[C@H](F)C[C@H]1c1ncc(-c2cc(F)c3c(c2)OC(c2cccc(OC)c2)n2c-3cc3cc(-c4cnc([C@@H]5C[C@H]6C[C@H]6N5C(=O)[C@@H](NC(=O)OC)C(C)C)[nH]4)ccc32)[nH]1)C(C)C (some centres undefined)"
endpoint_name = "EC90"
test_result = 52.2

[[record]]
compound = "COC(=O)N[C@H](C(=O)N1[C@@H]2C[C@@H]2C[C@H]1c1ncc(-c2cc(F)c3c(c2)OC(c2cccc(OC)c2)n2c-3cc3cc(-c4cnc([C@@H]5C[C@H]6C[C@H]6N5C(=O)[C@@H](NC(=O)OC)C(C)C)[nH]4)ccc32)[nH]1)C(C)C (some centres undefined)"
endpoint_name = "EC90"
test_result = 22.5

[[record]]
compound = "COC(=O)N[C@H](C(=O)N1C[C@@H](OC)C[C@H]1c1ncc(-c2cc(F)c3c(c2)OC(c2cccc(OC)c2)n2c-3cc3cc(-c4cnc([C@@H]5C[C@H](OC)CN5C(=O)[C@@H](NC(=O)OC)C(C)C)[nH]4)ccc32)[nH]1)C(C)C (some centres undefined)"
endpoint_name = "EC90"
test_result = 5.74


Note: attention shifts to another entry.
Exercise: Given the entry COC(=O)N[C@H](C(=O)N1C[C@H](OC)C[C@H]1c1ncc(-c2cc(F)c3c(c2)OC(c2cccc(OC)c2)n2c-3cc3cc(-c4cnc([C@@H]5C[C@@H](OC)CN5C(=O)[C@@H](NC(=O)OC)C(C)C)[nH]4)ccc32)[nH]1)C(C)C (some centres undefined) , what EC90 was observed with Hepatitis C virus subtype 2b?
Solution: 90.7

----------
- Tested on: Hepatitis C virus subtype 1a
- ASSAY_SUMMARY: Selectivity ratio of EC90 for NS5A L31V mutant in HCV genotype 1a to EC90 for NS5A in HCV genotype 1a
ENDPOINT_NAME: Selectivity ratio
Answer with a bare number; do not write a unit.

[[record]]
molecule = "COC(=O)N[C@H](C(=O)N1CCC[C@H]1c1ncc(-c2ccc3c(c2)cc2n3C(c3ccccc3)Oc3cc(-c4cnc([C@@H]5C[C@@H](F)CN5C(=O)[C@@H](NC(=O)OC)C(C)C)[nH]4)cc(F)c3-2)[nH]1)C(C)C (some centres undefined)"
test_result = 362


Exercise: Suppose we examine the molecule COC(=O)N[C@H](C(=O)N1CCC[C@H]1c1ncc(-c2cc(F)c3c(c2)OC(c2cccc(OC)c2)n2c-3cc3cc(-c4cnc([C@@H]5CCCN5C(=O)[C@@H](NC(=O)OC)C(C)C)[nH]4)ccc32)[nH]1)C(C)C (some centres undefined) ; what Selectivity ratio value has been reported?
Solution: 20

Exercise: Suppose we examine the molecule COC(=O)N[C@H](C(=O)N1CCC[C@H]1c1ncc(-c2ccc3c(c2)OC(c2cccc(OC)c2)n2c-3cc3cc(-c4cnc([C@@H]5C[C@H]6C[C@H]6N5C(=O)[C@@H](NC(=O)OC)C(C)C)[nH]4)ccc32)[nH]1)C(C)C (some centres undefined) ; what Selectivity ratio value has been reported?
Solution: 10

----------
- ASSAY_SUMMARY: Half life in rat at 2 mg/kg, iv
- Type: ADME, organism-based
- CONDITION_LABEL: in vivo
# half-life per entry
Report the value in h with no unit label.

[[record]]
compound = "COC(=O)N[C@H](C(=O)N1CCC[C@H]1c1ncc(-c2ccc3c(c2)OC(c2cccc(OC)c2)n2c-3cc3cc(-c4cnc([C@@H]5C[C@H]6C[C@H]6N5C(=O)[C@@H](NC(=O)OC)C(C)C)[nH]4)ccc32)[nH]1)C(C)C (some centres not stated)"
test_result = 4.7


Exercise: Suppose we examine the compound COC(=O)N[C@H](C(=O)N1CCC[C@H]1c1ncc(-c2cc(F)c3c(c2)OC(c2ccc4c(c2)OCCC4)n2c-3cc3cc(-c4cnc([C@@H]5C[C@H]6C[C@H]6N5C(=O)[C@@H](NC(=O)OC)C(C)C)[nH]4)ccc32)[nH]1)C(C)C (some centres not stated) ; what half-life value has been reported?
Solution: 4.6

----------
- Test system: Hepatitis C virus subtype 2b
- ASSAY_SUMMARY: Inhibition of NS5A in HCV genotype 2b assessed as reduction in replicon RNA level after 3 days by cell based RT-PCR method
# EC90 per entry

[[record]]
molecule = "COC(=O)N[C@H](C(=O)N1CCC[C@H]1c1ncc(-c2ccc3c(c2)OC(c2cccc(OC)c2)n2c-3cc3cc(-c4cnc([C@@H]5C[C@H]6C[C@H]6N5C(=O)[C@@H](NC(=O)OC)C(C)C)[nH]4)ccc32)[nH]1)C(C)C (some centres not stated)"
subject_of_test = "Hepatitis C virus subtype 2b"
test_result = "4.66 nM"


Note: attention shifts to another entry.
Exercise: Suppose we examine the molecule COC(=O)N[C@H](C(=O)N1CCC[C@H]1c1ncc(-c2ccc3c(c2)cc2n3C(c3cccc(OC)c3)Oc3cc(-c4cnc([C@@H]5C[C@H]6C[C@H]6N5C(=O)[C@@H](NC(=O)OC)C(C)C)[nH]4)cc(F)c3-2)[nH]1)C(C)C (some centres not stated) ; what EC90 value has been reported?
Solution: 49.3 nM

----------
- ASSAY_SUMMARY: AUC in rat at 10 mg/kg, po
- Format: ADME, organism-based
- CONDITION_LABEL: in vivo
ENDPOINT_NAME: AUC (µM·h)
Report the value in µM·h with no unit label.

[[record]]
molecule = "COC(=O)N[C@H](C(=O)N1CCC[C@H]1c1ncc(-c2cc(F)c3c(c2)OC(c2ccc4c(c2)OCCC4)n2c-3cc3cc(-c4cnc([C@@H]5C[C@H]6C[C@H]6N5C(=O)[C@@H](NC(=O)OC)C(C)C)[nH]4)ccc32)[nH]1)C(C)C (some centres not stated)"
test_result = 0.63


Exercise: Suppose we examine the molecule COC(=O)N[C@H](C(=O)N1CCC[C@H]1c1ncc(-c2ccc3c(c2)OC(c2cccc(OC)c2)n2c-3cc3cc(-c4cnc([C@@H]5C[C@H]6C[C@H]6N5C(=O)[C@@H](NC(=O)OC)C(C)C)[nH]4)ccc32)[nH]1)C(C)C (some centres not stated) ; what AUC value has been reported?
Solution: 3.64
